# study.target: C-C chemokine receptor type 5 (Homo sapiens)
# assay.explanation: Inhibitory activity against human Chemokine receptor 5 when co-administered with compound 8f
result.type: IC50 (nM)
Numeric only. Scale: nM

Give a short answer stating reported IC50 for "CCc1cc(Cc2ccccc2)n(C2CCN(C[C@H]3CN([C@@H](C(=O)O)C4CCCCC4)C[C@@H]3c3ccccc3)CC2)n1" .
78

###

# assay.explanation: Plasma clearance in rat
# Assay type: ADME, organism-based
# assay.conditions: read-out: Clp
For each entry below, report its log10 of clearance value.
Note the log scale: values are log10 of clearance expressed in mL/min/kg.

Give a short answer stating reported log10 of clearance for "CCn1nc(-c2ccccc2)cc1C1CCN(C[C@H]2CN([C@@H](C(=O)O)C3CCCCC3)C[C@@H]2c2ccccc2)CC1" .
0.58

Give a short answer stating reported log10 of clearance for "CCn1nc(Cc2ccccc2)cc1C1CCN(C[C@H]2CN([C@@H](C(=O)O)C3CCCCC3)C[C@@H]2c2ccccc2)CC1" .
1.81

Give a short answer stating reported log10 of clearance for "CCn1ncc(CCc2ccccc2)c1C1CCN(C[C@H]2CN([C@@H](C(=O)O)C3CCCCC3)C[C@@H]2c2ccccc2)CC1" .
1.90

Give a short answer stating reported log10 of clearance for "O=C(O)[C@@H](C1CCCCC1)N1C[C@H](CN2CCC(c3oncc3Cc3ccccc3)CC2)[C@@H](c2ccccc2)C1" .
1.83

Give a short answer stating reported log10 of clearance for "CCn1nc(CCc2ccccc2)cc1C1CCN(C[C@H]2CN([C@@H](C(=O)O)C3CCCCC3)C[C@@H]2c2cccc(F)c2)CC1" .
1.86

###

# study.target: C-C chemokine receptor type 5 (Homo sapiens, UniProt P51681)
# Sequence (P51681 whole entry): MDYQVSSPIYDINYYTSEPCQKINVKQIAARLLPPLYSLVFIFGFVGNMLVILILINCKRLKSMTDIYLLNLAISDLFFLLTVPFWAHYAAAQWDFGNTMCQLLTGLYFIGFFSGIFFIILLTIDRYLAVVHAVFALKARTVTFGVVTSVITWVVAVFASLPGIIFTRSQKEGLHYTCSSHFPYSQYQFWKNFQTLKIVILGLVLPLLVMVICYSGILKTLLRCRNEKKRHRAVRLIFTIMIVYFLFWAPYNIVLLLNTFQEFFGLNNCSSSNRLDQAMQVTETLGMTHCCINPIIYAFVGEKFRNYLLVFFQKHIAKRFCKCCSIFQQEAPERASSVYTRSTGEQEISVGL
# assay.explanation: Inhibitory activity against human CC chemokine receptor 5
result.type: IC50 (nM)
Numeric only. Scale: nM

Give a short answer stating reported IC50 for "CCn1nc(-c2ccccc2)cc1C1CCN(C[C@H]2CN([C@@H](C(=O)O)C3CCCCC3)C[C@@H]2c2ccccc2)CC1" .
22

Give a short answer stating reported IC50 for "O=C(O)[C@@H](C1CCCCC1)N1C[C@H](CN2CCC(c3n[nH]cc3C(F)(F)c3ccccc3)CC2)[C@@H](c2ccccc2)C1" .
2.1

Give a short answer stating reported IC50 for "O=C(O)[C@@H](C1CCCCC1)N1C[C@H](CN2CCC(c3cc(Cc4ccccc4)nn3CC(F)(F)F)CC2)[C@@H](c2ccccc2)C1" .
4.8

Give a short answer stating reported IC50 for "CCCCn1nc(Cc2ccccc2)cc1C1CCN(C[C@H]2CN([C@@H](C(=O)O)C3CCCCC3)C[C@@H]2c2ccccc2)CC1" .
3

Give a short answer stating reported IC50 for "CCn1cc(CCc2ccccc2)c(C2CCN(C[C@H]3CN([C@@H](C(=O)O)C4CCCCC4)C[C@@H]3c3ccccc3)CC2)n1" .
2.3

Give a short answer stating reported IC50 for "CCn1ncc(C2(c3ccccc3)CC2)c1C1CCN(C[C@H]2CN([C@@H](C(=O)O)C3CCCCC3)C[C@@H]2c2ccccc2)CC1" .
11

Give a short answer stating reported IC50 for "CCn1nc(C2CCN(C[C@H]3CN([C@@H](C(=O)O)C4CCCCC4)C[C@@H]3c3ccccc3)CC2)cc1Cc1ccccc1" .
76

###

For each entry below, report its bioavailability value.
# assay.explanation: Oral bioavailability in rat
# Type: ADME, organism-based
# assay.conditions: in vivo
Numeric only. Scale: %

Give a short answer stating reported bioavailability for "CCn1nc(-c2ccccc2)cc1C1CCN(C[C@H]2CN([C@@H](C(=O)O)C3CCCCC3)C[C@@H]2c2ccccc2)CC1" .
21

Give a short answer stating reported bioavailability for "CCn1nc(CCc2ccccc2)cc1C1CCN(C[C@H]2CN([C@@H](C(=O)O)C3CCCCC3)C[C@@H]2c2cccc(F)c2)CC1" .
3.2

Give a short answer stating reported bioavailability for "CCn1ncc(CCc2ccccc2)c1C1CCN(C[C@H]2CN([C@@H](C(=O)O)C3CCCCC3)C[C@@H]2c2ccccc2)CC1" .
2.6

Give a short answer stating reported bioavailability for "O=C(O)[C@@H](C1CCCCC1)N1C[C@H](CN2CCC(c3oncc3Cc3ccccc3)CC2)[C@@H](c2ccccc2)C1" .
5.9

Give a short answer stating reported bioavailability for "CCn1nc(Cc2ccccc2)cc1C1CCN(C[C@H]2CN([C@@H](C(=O)O)C3CCCCC3)C[C@@H]2c2ccccc2)CC1" .
4.1

###

# Tested on: Rattus norvegicus
# assay.explanation: Area under curve in rat after p.o. administration
# Assay type: ADME, organism-based
# assay.conditions: in vivo, po
result.type: AUC N (uM hr dose-1)
Numeric only. Scale: uM hr dose-1

Consider the compound "CCn1nc(Cc2ccccc2)cc1C1CCN(C[C@H]2CN([C@@H](C(=O)O)C3CCCCC3)C[C@@H]2c2ccccc2)CC1" tested on Rattus norvegicus; state its AUC N.
0.02

Consider the compound "CCn1nc(-c2ccccc2)cc1C1CCN(C[C@H]2CN([C@@H](C(=O)O)C3CCCCC3)C[C@@H]2c2ccccc2)CC1" tested on Rattus norvegicus; state its AUC N.
1.7

Consider the compound "CCn1nc(CCc2ccccc2)cc1C1CCN(C[C@H]2CN([C@@H](C(=O)O)C3CCCCC3)C[C@@H]2c2cccc(F)c2)CC1" tested on Rattus norvegicus; state its AUC N.
0.01

Consider the compound "O=C(O)[C@@H](C1CCCCC1)N1C[C@H](CN2CCC(c3oncc3Cc3ccccc3)CC2)[C@@H](c2ccccc2)C1" tested on Rattus norvegicus; state its AUC N.
0.03

Consider the compound "CCn1ncc(CCc2ccccc2)c1C1CCN(C[C@H]2CN([C@@H](C(=O)O)C3CCCCC3)C[C@@H]2c2ccccc2)CC1" tested on Rattus norvegicus; state its AUC N.
0.01

###

# study.target: C-C chemokine receptor type 5 (Homo sapiens)
# assay.explanation: Inhibition of human C-C chemokine receptor 5 by displacement of [125I]-labeled MIP-1alpha from CHO cell membranes
For each record, check the reported IC50: if it is below 8 nM write 1 (yes), else write 0 (no).

is_below(IC50, 8 nM) for "N#Cc1ccc(-c2cc(C3CCN(C[C@H]4CN([C@@H](C(=O)O)C5CCCCC5)C[C@@H]4c4ccccc4)CC3)n[nH]2)cc1" ?
1 (yes)

is_below(IC50, 8 nM) for "CCN(C(=O)OCc1ccccc1)C1CCN(CC[C@H](CN(C)S(=O)(=O)c2ccccc2)c2cccc(Cl)c2)CC1" ?
1 (yes)

is_below(IC50, 8 nM) for "CCn1nc(-c2cccc3ccccc23)cc1C1CCN(C[C@H]2CN([C@@H](C(=O)O)C3CCCCC3)C[C@@H]2c2cccc(F)c2)CC1" ?
0 (no)

is_below(IC50, 8 nM) for "O=C(O)[C@@H](C1CCCCC1)N1C[C@H](CN2CCC(c3cc(-c4cccc5ccccc45)[nH]n3)CC2)[C@@H](c2ccccc2)C1" ?
1 (yes)

is_below(IC50, 8 nM) for "Cn1ncc(CCc2ccccc2)c1C1CCN(C[C@H]2CN([C@@H](C(=O)O)C3CCCCC3)C[C@@H]2c2ccccc2)CC1" ?
1 (yes)

is_below(IC50, 8 nM) for "O=C(O)[C@@H](C1CCCCC1)N1C[C@H](CN2CCC(c3cc(-c4ccc(Cl)cc4Cl)[nH]n3)CC2)[C@@H](c2cccc(F)c2)C1" ?
0 (no)

is_below(IC50, 8 nM) for "O=C(O)[C@@H](C1CCCCC1)N1C[C@H](CN2CCC(c3cc(-c4ccc(Cl)cc4)n[nH]3)CC2)[C@@H](c2cccc(F)c2)C1" ?
1 (yes)

is_below(IC50, 8 nM) for "CCn1nc(CCc2ccccc2)cc1C1CCN(C[C@H]2CN([C@@H](C(=O)O)C3CCCCC3)C[C@@H]2c2cccc(F)c2)CC1" ?
1 (yes)

is_below(IC50, 8 nM) for "Cn1cc(CCc2ccccc2)c(C2CCN(C[C@H]3CN([C@@H](C(=O)O)C4CCCCC4)C[C@@H]3c3ccccc3)CC2)n1" ?
0 (no)

is_below(IC50, 8 nM) for "CCCn1ncc(CCc2ccccc2)c1C1CCN(C[C@H]2CN([C@@H](C(=O)O)C3CCCCC3)C[C@@H]2c2ccccc2)CC1" ?
1 (yes)

is_below(IC50, 8 nM) for "CCCn1cc(CCc2ccccc2)c(C2CCN(C[C@H]3CN([C@@H](C(=O)O)C4CCCCC4)C[C@@H]3c3ccccc3)CC2)n1" ?
0 (no)

is_below(IC50, 8 nM) for "O=C(O)[C@@H](C1CCCCC1)N1C[C@H](CN2CCC(CCCc3ccccc3)CC2)[C@@H](c2ccccc2)C1" ?
1 (yes)

is_below(IC50, 8 nM) for "COc1ccc(-c2cc(C3CCN(C[C@H]4CN([C@@H](C(=O)O)C5CCCCC5)C[C@@H]4c4cccc(F)c4)CC3)[nH]n2)cc1" ?
0 (no)
